# procedure-summary: chemical genetic growth profiling, strain panel (AID 1159580);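 also: tested at 20 µM; growth read once vehicle control cultures reached saturation at 30 °C; 1 = growth at the plate median or of vehicle wells; lower values mean less growth of the strain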
# conditions: S. cerevisiae deletion strains, growth OD, locus YEL061C, strain CIN8, hits give low values
The whole screen tested about 5,500 compounds, of which about 2,000 (36%) were called active. Inconclusive results (about 18%) are left out. Some of the results follow.
Entries and their measured normalized growth follow.
property-measured: normalized growth

1. Cc1cc(O)c2c(c1)C(=O)c1cccc(O)c1C2=O; 0.993
2. COc1ccc(CCNC(=O)c2ccccc2Cl)cc1OC; 0.968
3. NC(Cc1ccc(Cl)cc1)C(=O)O (stereo unspecified); 0.99
4. COc1cc2cccc(OC)c(=O)c2c(OC)c1OC; 1.01
5. O=C1NCCN=C(c2ccccc2)c2ccccc21; 0.995
6. CC1=C(C(=O)O)N2C(=O)[C@@H](NC(=O)[C@@H](N)c3ccc(O)cc3)[C@H]2SC1; 0.988
7. CC(C)c1cc2c(c(O)c1O)[C@@]1(C(=O)O)CCCC(C)(C)C1CC2 (stereo partly specified); 0.968
8. CN1C(=O)CC[C@H]1c1cccnc1; 0.993
9. COc1cc(C2Nc3cccc4cccc(c34)N2)cc(OC)c1OC; 0.925
10. CCCc1ncc(C[n+]2ccccc2C)c(N)n1; 1
11. O=C1CSC(c2cccnc2)N1c1ccc(Cl)cc1 (stereo unspecified); 0.977
12. Cn1c(=O)[nH]c2ncn(C)c2c1=O; 1.01
13. O=C(O)c1cccnc1C(=O)O; 1.02
14. N#CCC(=O)N(Cc1ccccc1F)C(=O)NC1CCCCC1; 1
15. CC(=O)Nc1ccc(S(=O)(=O)NCCCN2CCN(Cc3ccccc3)CC2)cc1Cl; 1.04
16. NC(=NCCCCCCN=C(N)N=C(N)Nc1ccc(Cl)cc1)N=C(N)Nc1ccc(Cl)cc1; 0.0488
17. O=C1CSC(c2cccnc2)N1c1ccc(C2CCCCC2)cc1 (stereo unspecified); 0.999
18. NC(=O)C1=C(O)C(=O)N(C2CCCCC2)C1; 0.995
19. O=C(O)c1cc(O)c2c(c1)C(=O)c1cc(O)cc(O)c1C2=O; 0.934
20. O=C1C=CC(=O)c2c(O)cccc21; 0.982
21. CNC(=O)Oc1ccccc1OC(C)C; 1.01
22. C[N+]12CCC(CC1)C(OC(=O)C(O)(c1ccccc1)c1ccccc1)C2 (stereo unspecified); 0.993
23. CNC(C)(C)Cc1ccccc1; 1
24. Cc1ccc(S(=O)(=O)N2CCN(CCOc3ccccc3)CC2)cc1; 0.972
25. O=C1c2cccc(O)c2C(=O)c2c(O)cccc21; 0.747
26. O=C1C=C(O)c2ccccc2C1=O; 0.966

###

# procedure-summary: chemical genetic growth profiling, strain panel (AID 1159580);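 also: tested at 20 µM; growth read once vehicle control cultures reached saturation at 30 °C; 1 = growth at the plate median or of vehicle wells; lower values mean less growth of the strain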
# conditions: S. cerevisiae deletion strains, growth OD, locus YMR078C, strain ctf18
In all, about 5,500 compounds went through this assay and about 2,000 (36%) were called active. Roughly 18% stayed inconclusive and do not appear here. No stated cut-off is given here; in the data, active means normalized growth mostly below about 0.91 (no sharp cut-off); inconclusive means no clear call, values can overlap the other calls; inactive means mostly above about 0.92. Some of the results follow.
Labels: active, inactive

1. COc1ccc([C@@H](C)C(=O)c2ccc(O)cc2O)cc1; inactive
2. CN1C(=O)CC[C@H]1c1cccnc1; inactive
3. O=C(O)c1cc(=O)c2ccccc2[nH]1; inactive
4. O=C(N[C@@H](CO)[C@H](O)c1ccc([N+](=O)[O-])cc1)C(Cl)Cl; inactive
5. O=C(c1ccccc1)c1ccc2n1CCC2C(=O)O (configuration not stated); inactive
6. C/C(=C\CO)CC[C@H](C)CCC[C@H](C)CCCC(C)C; active
7. O=c1c(O)c(-c2ccccc2)oc2cc(O)ccc12; active
8. O=C1c2cccc(O)c2C(=O)c2c(O)cccc21; active
9. OC[C@H]1O[C@@H](Oc2ccc(O)cc2)[C@H](O)[C@@H](O)[C@@H]1O; inactive
10. C=C(C)C1Cc2c(ccc(C(=O)O)c2O)O1 (configuration not stated); inactive
11. COc1cc(OC)c2c(OC)c(-c3ccc4c(c3)OCO4)c(=O)oc2c1; inactive
12. CN1CCC[C@H]1c1cccnc1; inactive
13. COc1ccccc1OCC(O)COC(N)=O (configuration not stated); inactive
14. C[C@]12CC[C@@H](O)C[C@H]1CCc1ccccc12; inactive
15. COc1ccc(/C=C/c2cc(O)cc(O[C@@H]3O[C@H](CO)[C@@H](O)[C@H](O)[C@H]3O)c2)cc1; inactive
16. O=C1NS(=O)(=O)c2ccccc21; inactive
17. CC(C)c1cc2c(c(O)c1O)[C@@]1(C(=O)O)CCCC(C)(C)C1CC2 (some centres not stated); inactive
18. CC(C)[C@@H]1CC[C@@H](C)CC1=O; inactive
19. CC(C)=CCC/C(C)=C/CO; inactive
20. CNC(C)[C@@H]1CC[C@@H](N)[C@@H](OC2[C@@H](N)C[C@@H](N)[C@H](OC3OC[C@](C)(O)[C@H](NC)[C@H]3O)[C@H]2O)O1 (some centres not stated); inactive
21. Cn1c(=O)[nH]c2ncn(C)c2c1=O; inactive
22. C[N+]1(C)CCCC(OC(=O)C(O)(c2ccccc2)c2ccccc2)C1 (configuration not stated); inactive
23. CC(=O)OC[C@@]1(O)C[C@@]23CCC4c5ccoc5CC[C@]4(C)C2CC[C@@H]1C3 (some centres not stated); inactive
24. O=C(O)CC[N+](=O)[O-]; inactive
25. Cn1c(=O)c2c(ncn2C)n(C)c1=O; inactive
26. O=c1c(O)c(-c2ccccc2)oc2ccccc12; inactive
27. CC(C)N=C(N)N=C(N)Nc1ccc(Cl)cc1; inactive
28. CN1CCN(C2=Nc3cc(Cl)ccc3Nc3ccccc32)CC1; inactive
29. COC(=O)C[C@H]1C(C)(C)[C@H](O)[C@@H]2CC3=C4CC(O)O[C@@H](c5ccoc5)[C@]4(C)CCC3[C@@]1(C)C2=O (some centres not stated); inactive
30. O=C1C=C(O)c2ccccc2C1=O; inactive
31. COc1cc([C@@H]2c3cc4c(cc3[C@H](O)[C@H]3COC(=O)[C@H]23)OCO4)cc(OC)c1OC; inactive
32. C[C@]12[C@H](O)CC3C(CC[C@@H]4C[C@@H](O)CC[C@]34C)[C@@]1(O)CC[C@@H]2C1=CC(=O)OC1 (some centres not stated); inactive
33. O=c1c(O)cccc2cc(O)c(O)c(O)c12; inactive
34. CCCCCC/C=C\CCCCCCCc1cccc(O)c1C(=O)O; inactive
35. O=C(/C=C/c1ccccc1)c1c(O)cc(O)cc1O; inactive
36. CC(=O)OCC1=C(C(=O)O)N2C(=O)[C@@H](NC(=O)CSc3ccncc3)[C@H]2SC1; inactive
37. CC(C)Cn1c(=O)n(C)c(=O)c2[nH]cnc21; inactive
38. CC(=O)Nc1c(I)cc(I)c(C(=O)O)c1I; inactive
39. O[C@H]1[C@H](O)[C@@H](O)C2OC[C@H]1O2; inactive
40. CNC(C)(C)Cc1ccccc1; inactive
41. O=C(O)CCC(=O)OC[C@@H](NC(=O)C(Cl)Cl)[C@H](O)c1ccc([N+](=O)[O-])cc1; inactive
42. Cn1c(=O)c2c(ncn2CCO)n(C)c1=O; inactive
43. COc1cc2cccc(OC)c(=O)c2c(OC)c1OC; inactive
44. CC1(C)CC23C(=O)CCC(O)C2(C)CCC13 (configuration not stated); inactive
45. COc1ccc(-c2c(O)c3c(OC)c4c(cc3oc2=O)OC(C)(C)C=C4)cc1; inactive
46. O=C(/C=C/c1ccc(O)cc1)c1ccc(O)cc1O; inactive
47. CC(=O)NS(=O)(=O)c1ccc(N)cc1; inactive

###

# procedure-summary: chemical genetic growth profiling, strain panel (AID 1159580);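 also: tested at 20 µM; growth read once vehicle control cultures reached saturation at 30 °C; 1 = growth at the plate median or of vehicle wells; lower values mean less growth of the strain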
# conditions: S. cerevisiae deletion strains, growth OD, locus YBR021W, strain FUR4, hits give low values
Screen size: about 5,500 compounds; about 2,000 (36%) were called active. Roughly 18% stayed inconclusive and do not appear here. The list shows a part of the results.
Entries and their measured normalized growth follow.
property-measured: normalized growth

1) NC(Cc1ccc(Cl)cc1)C(=O)O (centres undefined); 1.01
2) COC(=O)C(O)[C@H]1C(C)(C)[C@@H](OC(C)=O)[C@@H]2CC3=C4CC(=O)O[C@@H](c5ccoc5)[C@]4(C)CCC3[C@@]1(C)C2=O (some centres undefined); 0.99
3) CC(=O)Nc1c(I)cc(I)c(C(=O)O)c1I; 1.02
4) CON; 1
5) CC(C)[C@@H]1CC[C@@H](C)CC1=O; 0.98
6) CC(NC(C)(C)C)C(=O)c1cccc(Cl)c1 (centres undefined); 0.995
7) CN1C(=O)CC[C@H]1c1cccnc1; 1
8) CN1CCCCC1c1ccc(-c2cccnc2)nc1 (centres undefined); 1.1
9) CCCC(=O)Nc1ccc(OCC(O)CNC(C)C)c(C(C)=O)c1 (centres undefined); 1.02
10) O=c1c(O)c(-c2ccccc2)oc2ccccc12; 1.01
11) COc1ccc(CC(=O)c2ccc(O)cc2O)cc1; 0.894
12) O=C(/C=C/c1ccccc1)c1c(O)cc(O)cc1O; 0.995
13) COc1ccc([C@@H](C)C(=O)c2ccc(O)cc2O)cc1; 0.996
14) COc1cc(O)ccc1C(C)=O; 1.05
15) C[C@]12[C@H](O)CC3C(CC[C@@H]4C[C@@H](O)CC[C@]34C)[C@@]1(O)CC[C@@H]2C1=CC(=O)OC1 (some centres undefined); 1.05
16) O[C@H]1[C@H](O)[C@@H](O)C2OC[C@H]1O2; 1.03
17) COC(=O)c1cc(OC)c(=O)c2c(OC)c(OC)ccc2c1; 1.02
18) O=C(/C=C/c1ccccc1)c1ccc(O[C@@H]2O[C@H](CO)[C@@H](O)[C@H](O)[C@H]2O)cc1O; 0.883
19) COc1ccc(/C=C/c2cc(O)cc(O[C@@H]3O[C@H](CO)[C@@H](O)[C@H](O)[C@H]3O)c2)cc1; 1.02
20) CC(C)c1cc2c(c(O)c1O)[C@@]1(C(=O)O)CCCC(C)(C)C1CC2 (some centres undefined); 1.01
21) CNC(=O)N(C)c1nnc(C(C)(C)C)s1; 1.04
22) ClC1C(Cl)C(Cl)C(Cl)C(Cl)C1Cl (centres undefined); 0.985
23) O=C(CCc1ccc(O)cc1)c1c(O)cc(O)cc1O; 1.03
24) COc1cc2c(cc1OC)C(C)NCC2 (centres undefined); 0.995
